# testedSystem: interaction of ICAM-1 with the Leukointegrin CD18/CD11a (LFA-1) (Homo sapiens, UniProt P05107+P20701)
# Construct: endogenous in cells; sICAM-1: made in house, secreted from transfected CHO DUX cells
# Sequence (P20701 26-1170): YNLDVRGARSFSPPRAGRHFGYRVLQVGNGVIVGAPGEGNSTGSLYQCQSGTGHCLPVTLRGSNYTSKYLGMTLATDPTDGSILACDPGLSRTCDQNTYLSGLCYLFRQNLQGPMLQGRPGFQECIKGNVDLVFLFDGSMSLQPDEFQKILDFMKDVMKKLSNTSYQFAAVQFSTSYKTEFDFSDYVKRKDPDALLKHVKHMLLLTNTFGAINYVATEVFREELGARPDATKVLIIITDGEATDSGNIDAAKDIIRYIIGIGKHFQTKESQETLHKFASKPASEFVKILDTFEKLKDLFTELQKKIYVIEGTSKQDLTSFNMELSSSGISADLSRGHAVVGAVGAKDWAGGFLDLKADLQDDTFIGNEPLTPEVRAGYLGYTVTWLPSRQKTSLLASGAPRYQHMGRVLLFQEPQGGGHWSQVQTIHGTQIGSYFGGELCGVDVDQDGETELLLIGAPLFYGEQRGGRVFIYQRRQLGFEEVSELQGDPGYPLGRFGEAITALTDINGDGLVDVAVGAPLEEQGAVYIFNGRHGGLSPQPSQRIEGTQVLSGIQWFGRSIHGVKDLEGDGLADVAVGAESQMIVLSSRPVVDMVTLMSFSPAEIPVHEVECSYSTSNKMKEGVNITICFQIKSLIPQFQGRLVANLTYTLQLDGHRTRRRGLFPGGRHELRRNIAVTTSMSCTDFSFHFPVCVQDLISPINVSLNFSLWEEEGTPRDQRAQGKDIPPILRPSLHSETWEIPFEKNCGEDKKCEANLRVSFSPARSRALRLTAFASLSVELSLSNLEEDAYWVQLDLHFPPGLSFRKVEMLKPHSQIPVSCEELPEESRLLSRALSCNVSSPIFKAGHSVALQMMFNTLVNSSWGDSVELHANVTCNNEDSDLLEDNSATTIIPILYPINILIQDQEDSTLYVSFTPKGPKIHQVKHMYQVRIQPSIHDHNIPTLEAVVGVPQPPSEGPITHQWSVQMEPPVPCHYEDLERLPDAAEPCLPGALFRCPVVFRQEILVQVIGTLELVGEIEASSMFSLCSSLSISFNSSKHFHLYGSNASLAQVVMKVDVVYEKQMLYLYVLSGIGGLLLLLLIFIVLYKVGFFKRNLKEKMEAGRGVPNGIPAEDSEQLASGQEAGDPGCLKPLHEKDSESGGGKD
# Sequence (P05107 23-769): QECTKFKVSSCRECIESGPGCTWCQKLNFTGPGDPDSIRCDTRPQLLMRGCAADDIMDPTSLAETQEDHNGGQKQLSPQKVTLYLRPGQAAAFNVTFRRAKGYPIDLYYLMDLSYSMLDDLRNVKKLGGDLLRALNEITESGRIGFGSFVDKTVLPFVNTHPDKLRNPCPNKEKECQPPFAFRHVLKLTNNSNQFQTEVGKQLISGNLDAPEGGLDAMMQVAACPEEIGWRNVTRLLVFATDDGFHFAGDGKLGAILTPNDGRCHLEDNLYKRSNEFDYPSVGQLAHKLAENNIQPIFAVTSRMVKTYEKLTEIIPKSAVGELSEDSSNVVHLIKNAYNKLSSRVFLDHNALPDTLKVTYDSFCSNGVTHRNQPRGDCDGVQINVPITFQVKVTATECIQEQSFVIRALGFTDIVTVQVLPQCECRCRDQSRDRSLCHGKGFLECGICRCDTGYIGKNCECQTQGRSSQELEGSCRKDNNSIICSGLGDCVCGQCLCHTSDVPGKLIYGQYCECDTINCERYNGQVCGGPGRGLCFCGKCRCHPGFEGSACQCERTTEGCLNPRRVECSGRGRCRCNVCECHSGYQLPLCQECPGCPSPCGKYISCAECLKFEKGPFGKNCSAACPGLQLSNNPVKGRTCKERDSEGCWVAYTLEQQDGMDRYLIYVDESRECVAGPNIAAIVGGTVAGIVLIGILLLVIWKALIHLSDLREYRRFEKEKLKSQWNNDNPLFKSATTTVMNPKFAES
# experimentSummary: Assay to determine inhibition of LFA-1 binding to ICAM-1 (immunopurified LFA-1 on plate-bound sICAM-1, ELISA readout)
# conditionSummary: values marked e approximated from incomplete dose-response curve
pKd: −log10 of the molar value.
assayMetric: pKd

compound="Cc1cccc(CC2(C)C(=O)N(c3cc(Cl)cc(Cl)c3)C(=O)N2C)c1 (centres unmarked)" observedvalue=5.92
compound=COc1ccc(CN2C(=O)N(c3cc(Cl)cc(Cl)c3)C(=O)[C@@]2(C)Cc2ccc(Br)cc2)cc1 observedvalue=5.72
compound="CN1C(=O)N(c2cc(C(F)(F)F)cc(C(F)(F)F)c2)C(=O)C1(C)Cc1ccccc1 (centres unmarked) [Example 88]" observedvalue=6.39
compound="CC(C)C1(Cc2ccccc2)NC(=O)N(c2cc(Cl)cc(Cl)c2)C1=O (centres unmarked)" observedvalue=4.92
compound=C[C@@]1(Cc2ccc([N+](=O)[O-])cc2)C(=O)N(c2cc(Cl)cc(Cl)c2)C(=O)N1S(C)(=O)=O observedvalue=6.72
compound="CC(=O)Nc1cccc(-c2ccc(CC3(C)NC(=O)N(c4cc(Cl)cc(Cl)c4)C3=O)cc2)c1 (centres unmarked)" observedvalue=6.47
compound="O=C1NC(Cc2ccccc2)C(=O)N1c1cc(Cl)c(I)c(Cl)c1 (centres unmarked)" observedvalue=5.36
compound="CC1(Cc2ccccc2Br)NC(=O)N(c2cc(Cl)cc(Cl)c2)C1=O (centres unmarked)" observedvalue=5.76
compound="CCCC1(Cc2ccccc2)NC(=O)N(c2cc(Cl)cc(Cl)c2)C1=O (centres unmarked)" observedvalue=5.87
compound="CC1(Cc2ccc(OC(F)(F)F)cc2)NC(=O)N(c2cc(Cl)cc(Cl)c2)C1=O (centres unmarked)" observedvalue=6.44
compound="CN1C(=O)N(c2cc(Cl)cc(Cl)c2)C(=O)C1(C)Cc1cccc(Br)c1 (centres unmarked)" observedvalue=6.70
compound="CC1(Cc2c[nH]c3ccccc23)NC(=O)N(c2cc(Cl)cc(Cl)c2)C1=O (centres unmarked) [Example 28]" observedvalue=5.59
compound="CC1(Cc2cccc(SC(F)(F)F)c2)NC(=O)N(c2cc(Cl)cc(Cl)c2)C1=O (centres unmarked)" observedvalue=5.88
compound="O=C1NC(Cc2ccc(O)cc2)C(=O)N1c1cc(Cl)cc(Cl)c1 (centres unmarked)" observedvalue=4.81

---

# testedSystem: interaction of ICAM-1 with the Leukointegrin CD18/CD11a (LFA-1) (Homo sapiens, UniProt P05107+P20701)
# Construct: endogenous in cells; sICAM-1: made in house, secreted from transfected CHO DUX cells
# experimentSummary: Assay to determine inhibition of LFA-1 binding to ICAM-1 (immunopurified LFA-1 on plate-bound sICAM-1, ELISA readout)
# conditionSummary: values marked e approximated from incomplete dose-response curve
assayMetric: log10 of Kd (log10 of the value in nM)

molecule="CC1(Cc2ccc(Br)cc2)NC(=S)N(c2cc(Cl)cc(Cl)c2)C1=S (stereo not drawn)" observedvalue=2.53
molecule="Cc1ccc(CC2(C)C(=O)N(c3cc(Cl)cc(Cl)c3)C(=O)N2C)cc1 (stereo not drawn) [Example 170]" observedvalue=1.30
molecule="CN1C(=S)N(c2cc(Cl)cc(Cl)c2)C(=S)C1(C)Cc1ccc(Br)cc1 (stereo not drawn)" observedvalue=2.63
molecule="O=C1CC(Cc2ccccc2)C(=O)N1c1cc(Cl)cc(Cl)c1 (stereo not drawn)" observedvalue=3.37
molecule=CN1C(=O)N(c2cccc(Cl)c2)C(=O)[C@@]1(C)Cc1ccc(Br)cc1 observedvalue=2.83
molecule=CCN1C(=O)N(c2cc(Cl)cc(Cl)c2)C(=O)[C@@]1(C)Cc1ccc(Br)cc1 observedvalue=1.36
molecule=C[C@@]1(Cc2ccc(Br)cc2)C(=O)N(c2cc(Cl)cc(Cl)c2)C(=O)N1Cc1ccccc1C#N observedvalue=2.41
molecule="Cc1ccccc1-c1ccc(CC2(C)NC(=O)N(c3cc(Cl)cc(Cl)c3)C2=O)cc1 (stereo not drawn)" observedvalue=2.28
molecule="CC1(Cc2ccccc2OC(F)(F)F)NC(=O)N(c2cc(Cl)cc(Cl)c2)C1=O (stereo not drawn)" observedvalue=3.45
molecule="CC(C)(C)N1C(=O)N(c2cc(Cl)cc(Cl)c2)C(=O)C1(C)Cc1ccc(Br)cc1 (stereo not drawn)" observedvalue=2.40
molecule=C[C@]1(Cc2ccc(-c3cccnc3)cc2)NC(=O)N(c2cc(Cl)cc(Cl)c2)C1=O observedvalue=2.63
molecule=O=C1N[C@@H](Cc2ccccc2)C(=O)N1c1cc(Cl)cc(Cl)c1 observedvalue=4.10
molecule=C[C@@]1(Cc2ccc(Br)cc2)C(=O)N(c2cc(Cl)cc(Cl)c2)C(=O)N1Cc1ccncc1 observedvalue=2.00
molecule="CN1C(=O)N(c2cc(Cl)cc(Cl)c2)C(=O)C1(C)Cc1ccc2ccccc2n1 (stereo not drawn)" observedvalue=3.66
molecule="COCC1(Cc2ccc(Br)cc2)C(=O)N(c2cc(Cl)cc(Cl)c2)C(=O)N1C (stereo not drawn)" observedvalue=2.36
molecule=CN1C(=O)N(c2cc(Cl)cc(Cl)c2)C(=O)[C@@]1(C)Cc1ccc(-c2ccc(C(=O)O)cc2)cc1 observedvalue=3.05
molecule="CC1(Cc2ccc(-c3ccc(Cl)cc3)cc2)NC(=O)N(c2cc(Cl)cc(Cl)c2)C1=O (stereo not drawn)" observedvalue=2.75
molecule="CC1(Cc2ccc(-c3ccc(Cl)cc3Cl)cc2)NC(=O)N(c2cc(Cl)cc(Cl)c2)C1=O (stereo not drawn)" observedvalue=2.83
molecule=C[C@@]1(Cc2ccc(Br)cc2)C(=O)N(c2cc(Cl)cc(Cl)c2)C(=O)N1CCCCCCCl observedvalue=2.68
molecule="CC1(Cc2ccc(C(F)(F)F)c(F)c2)NC(=O)N(c2cc(Cl)cc(Cl)c2)C1=O (stereo not drawn)" observedvalue=2.20
molecule="CC1(Cc2ccc(Cl)c(Cl)c2)NC(=O)N(c2cc(Cl)cc(Cl)c2)C1=O (stereo not drawn)" observedvalue=2.30
molecule="O=C1NC(CCc2ccccc2)C(=O)N1c1cc(Cl)cc(Cl)c1 (stereo not drawn)" observedvalue=3.24
molecule="CC1(Cc2ccccc2)C(=O)N(c2cc(Cl)cc(Cl)c2)C(=O)N1C1CCCCC1 (stereo not drawn)" observedvalue=2.97
molecule="CN1C(=O)N(c2cc(Cl)cc(Cl)c2)C(=O)C1(C)Cc1cc(Br)cc(Br)c1 (stereo not drawn)" observedvalue=2.45
molecule="CC1(Cc2ccc(O)cc2)NC(=O)N(c2cc(Cl)cc(Cl)c2)C1=O (stereo not drawn)" observedvalue=3.90
molecule=C[C@]1(Cc2ccc(Br)cc2)NC(=O)N(c2cccc(Cl)c2)C1=O observedvalue=3.61
molecule="CC1(Cc2ccc(-c3cccs3)cc2)NC(=O)N(c2cc(Cl)cc(Cl)c2)C1=O (stereo not drawn)" observedvalue=2.48
molecule="CN1C(=O)N(c2cc(Cl)cc(Cl)c2)C(=O)C1(C)Cc1ccccc1Cl (stereo not drawn)" observedvalue=2.84
molecule="CN1C(=S)N(c2cc(Cl)cc(Cl)c2)C(=O)C1(C)Cc1ccc(Br)cc1 (stereo not drawn)" observedvalue=2.28
molecule="Cc1ccccc1CC1(C)C(=O)N(c2cc(Cl)cc(Cl)c2)C(=O)N1C (stereo not drawn) [Example 148]" observedvalue=2.70

// data source = patent USRE38132E1
